Catalogue of IC50 readings, one per entry.
biological target: CDK2/CyclinE1 (Homo sapiens (Human), UniProt P24941); test: CDK2/CyclinE1 kinase inhibitory activity (Caliper mobility shift); details: read-out: CDK2/Cyclin El IC50

Q: I would be grateful if you could share the reported IC50 for CC(C)NS(=O)(=O)c1ccc(Nc2ncc(C#N)c(OC3CCCCC3O)n2)cc1 (single isomer, unassigned) [Example 30b] .
Result: 10 to 100 nM

Q: # input compound: N#Cc1cnc(Nc2ccc(S(=O)(=O)NC3CC(F)(F)C3)cc2)nc1OC1CCCCC1O (single isomer, unassigned) [Example 32b] ; wanted: its IC50
Result: 10 to 100 nM

Q: Query (compound): C[C@@H]1CCCCN1c1nc(Nc2ccc(S(N)(=O)=O)cc2)ncc1F [Example 87] ; field requested: IC50
Result: < 10 nM

Q: IC50 lookup needed for C[C@@H]1CCCN(c2nc(Nc3ccc(S(N)(=O)=O)cc3)ncc2C#N)C1 [Example 72] , thanks.
Result: 10 to 100 nM

Q: For Cn1cc(S(=O)(=O)N2CCC(Nc3ncc(C(F)(F)F)c(OC4CCOCC4(C)O)n3)CC2)cn1 (single isomer, unassigned) [Example 125b] , what is its reported IC50?
Result: 10 to 100 nM

Others:
Q: I have this compound here, CNS(=O)(=O)N1CCC(Nc2ncc(C(F)(F)F)c(OC3CCCCCC3O)n2)CC1 (single isomer, unassigned) [Example 123b] , and I need its recorded IC50.
Result: < 10 nM

Q: Recorded IC50 for CC1(O)CC(F)(F)CCC1Oc1nc(NC2CCN(S(C)(=O)=O)CC2)ncc1C#N (single isomer, unassigned) [Example 47b] , please?
Result: 100 to 1000 nM

---

target: CDK2/CyclinE1 (Homo sapiens (Human)); test: CDK2/CyclinE1 kinase inhibitory activity (Caliper mobility shift); details: read-out: CDK2/Cyclin El IC50
pIC50: −log10 of the molar value.
Quick reference for pIC50 among some compounds

Q: Which pIC50 is reported for this compound? NS(=O)(=O)c1ccc(Nc2ncc(C(F)(F)F)c(O[C@H]3[C@@H]4CC[C@@H](C4)[C@H]3O)n2)cc1 (single isomer, unassigned) [Example 113a]
Result: > 8.00

***
Q: For CCS(=O)(=O)N1CCC(Nc2ncc(C#N)c(OC3CCCC3(C)O)n2)CC1 (single isomer, unassigned) [Example 36b] , what is its reported pIC50?
Result: > 8.00

Q: Entry N#Cc1cnc(Nc2ccc(S(N)(=O)=O)cc2)nc1OCC1(O)CCCCC1 has what pIC50?
Result: 7.00 to 8.00

Q: Fill in: pIC50 of CC(C)NS(=O)(=O)c1ccc(Nc2ncc(C3CC3)c(O[C@@H]3CCC[C@@H]3O)n2)cc1 (single isomer, unassigned) [Example 134a] is ___
Result: > 8.00

---

biological target: CDK6/CyclinD1 (Homo sapiens (Human), UniProt Q00534); assay: CDK6/CyclinD1 kinase inhibitory activity (Caliper mobility shift); assay type: biochemical; conditions: read-out: CDK6/Cyclin D1 IC50
Sequence (Q00534 whole entry): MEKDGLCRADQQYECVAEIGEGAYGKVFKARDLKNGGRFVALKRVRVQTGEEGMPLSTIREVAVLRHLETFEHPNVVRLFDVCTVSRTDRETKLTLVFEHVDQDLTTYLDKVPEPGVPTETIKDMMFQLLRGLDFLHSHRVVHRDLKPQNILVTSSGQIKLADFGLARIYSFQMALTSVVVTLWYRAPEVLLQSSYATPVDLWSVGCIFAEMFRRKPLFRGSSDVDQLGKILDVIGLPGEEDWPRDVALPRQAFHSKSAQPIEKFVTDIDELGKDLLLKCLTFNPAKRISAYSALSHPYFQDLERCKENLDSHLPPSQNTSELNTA
Sequence (P24385 whole entry partner): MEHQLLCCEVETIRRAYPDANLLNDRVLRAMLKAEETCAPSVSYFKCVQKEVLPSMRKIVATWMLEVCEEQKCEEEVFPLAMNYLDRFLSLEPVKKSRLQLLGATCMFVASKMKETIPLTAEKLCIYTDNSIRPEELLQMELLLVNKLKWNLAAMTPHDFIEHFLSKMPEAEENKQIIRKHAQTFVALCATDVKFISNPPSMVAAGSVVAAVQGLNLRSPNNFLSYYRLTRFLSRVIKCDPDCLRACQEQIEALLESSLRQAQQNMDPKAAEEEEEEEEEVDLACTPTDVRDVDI
IC50 values by entry

Recorded results for 8 compounds are shown here.
Q: Provide the documented IC50 with CDK6/CyclinD1 (Homo sapiens (Human), UniProt Q00534) as the system for CC1(COc2nc(NC3CCN(S(=O)(=O)CCO)CC3)ncc2C#N)CCCC1
Result: < 10 nM

Q: Missing value: IC50, CDK6/CyclinD1 (Homo sapiens (Human), UniProt Q00534), entry C[C@]1(O)CC(F)(F)C[C@H]1Oc1nc(NC2CCN(S(C)(=O)=O)CC2)ncc1C#N (relative stereo) [Example 4b] . Fill in?
Result: 10 to 100 nM

Q: Given the entry CNS(=O)(=O)N1CCC(Nc2ncc(C(F)(F)F)c(OC3CCCCCC3O)n2)CC1 (single isomer, unassigned) [Example 123b] , what IC50 was observed with CDK6/CyclinD1 (Homo sapiens (Human), UniProt Q00534)?
Result: 10 to 100 nM

Q: // map Cn1cnc(S(=O)(=O)N2CCC(Nc3ncc(C#N)c(OC4CCCC4(C)O)n3)CC2)c1 (single isomer, unassigned) [Example 50b] to recorded IC50 (system: CDK6/CyclinD1 (Homo sapiens (Human), UniProt Q00534))
Result: 10 to 100 nM

Q: Test system CDK6/CyclinD1 (Homo sapiens (Human), UniProt Q00534); read-out IC50; what value for CC1(O)COCCC1Oc1nc(NC2CCN(S(C)(=O)=O)CC2)ncc1C(F)(F)F (single isomer, unassigned) [Example 124a] ?
Result: 10 to 100 nM

Q: Recorded IC50 for N#Cc1cnc(Nc2ccc(S(N)(=O)=O)cc2)nc1OCC1(CO)CCCCC1 with CDK6/CyclinD1 (Homo sapiens (Human), UniProt Q00534), please?
Result: 100 to 1000 nM

Q: Param readout = IC50; param system = CDK6/CyclinD1 (Homo sapiens (Human), UniProt Q00534); param query = CC1(COc2nc(NC3CCN(S(C)(=O)=O)CC3)ncc2C#N)CCCC1 ; response: value
Result: < 10 nM

Q: CDK6/CyclinD1 (Homo sapiens (Human), UniProt Q00534) / IC50 / CC1(O)CCCCC1Oc1nc(Nc2ccc(S(N)(=O)=O)cc2)ncc1C#N (single isomer, unassigned) [Example 24a] : value?
Result: < 10 nM

New cases:
Q: Requested read-out IC50, target or system CDK6/CyclinD1 (Homo sapiens (Human), UniProt Q00534), entry CNS(=O)(=O)c1ccc(Nc2ncc(Br)c(OC3CCCC3O)n2)cc1 (single isomer, unassigned) [Example 142a]
Result: 10 to 100 nM

Q: What reported IC50 corresponds to CN1CCC(NS(=O)(=O)c2ccc(Nc3ncc(Cl)c(OC4CCCC4O)n3)cc2)CC1 (single isomer, unassigned) [Example 139b] on CDK6/CyclinD1 (Homo sapiens (Human), UniProt Q00534)?
Result: 100 to 1000 nM

Q: Kindly state the measured IC50 obtained for NS(=O)(=O)c1ccc(Nc2ncc(C(F)(F)F)c(OC3CCCCC3O)n2)cc1 (single isomer, unassigned) [Example 111b] with CDK6/CyclinD1 (Homo sapiens (Human), UniProt Q00534).
Result: 10 to 100 nM

Q: Lookup: IC50 / CDK6/CyclinD1 (Homo sapiens (Human), UniProt Q00534) / CCc1cnc(Nc2ccc(S(N)(=O)=O)cc2)nc1O[C@@H]1CCC[C@@H]1O (single isomer, unassigned) [Example 133a]
Result: 10 to 100 nM

Q: Lab note: need IC50 with CDK6/CyclinD1 (Homo sapiens (Human), UniProt Q00534) for entry CC1CCCC(O)C1Oc1nc(Nc2ccc(S(N)(=O)=O)cc2)ncc1C(F)(F)F (single isomer, unassigned) [Example 112a] , please look it up.
Result: 100 to 1000 nM

Q: Observed IC50 on CDK6/CyclinD1 (Homo sapiens (Human), UniProt Q00534) for N#Cc1cnc(Nc2ccc(S(N)(=O)=O)cc2)nc1-c1cccc(C2CC2)c1 , please.
Result: ≥ 1000 nM
